Tested on: IL-1β production, LPS-challenged mice
Assay: In vivo acute assay for efficacy as anti-inflammatory agent: LPS-induced IL-1β production in mice
Parameters: species or system mouse
Details: LPS challenged mice, PO, 50 mg/kg; * = values obtained in subsequent assays (Table 4)
READOUT: Inhibition of IL-1β Production, compound administered −2 hr relative to LPS challenge (%)
Reply numerically in %, unit not repeated.

Problem: Look at this compound and give its reported Inhibition of IL-1β Production, compound administered −2 hr relative to LPS challenge. `CC(C)(C)OC(=O)C[C@@H](C=O)NC(=O)[C@@H]1CCCN2C(=O)CC[C@H](NC(=O)c3ccccc3)C(=O)N12`
Solution: 0

Problem: Would you mind telling me what Inhibition of IL-1β Production, compound administered −2 hr relative to LPS challenge value was observed for CCOC1OC(=O)C[C@@H]1NC(=O)[C@@H]1CCCN2C(=O)CC[C@H](NC(=O)c3ccccc3)C(=O)N12 (some centres unmarked) [Compound 2100e] ?
Solution: 49

Problem: What does the data say about its Inhibition of IL-1β Production, compound administered −2 hr relative to LPS challenge? Entry: CCOC(=O)C[C@H](NC(=O)[C@@H]1CCCN2C(=O)CC[C@H](NC(=O)c3ccccc3)C(=O)N12)C(OCC)OCC [Compound 2100b]
Solution: 0

Problem: Value lookup for Inhibition of IL-1β Production, compound administered −2 hr relative to LPS challenge; key = COC1OC(=O)C[C@@H]1NC(=O)[C@@H]1CCCN2C(=O)CC[C@H](NC(=O)c3ccccc3)C(=O)N12 (some centres unmarked) [Compound 304a]
Solution: 30

Problem: Using the record for COC(=O)C[C@H](NC(=O)[C@@H]1CCCN2C(=O)CC[C@H](NC(=O)c3ccccc3)C(=O)N12)C(OC)OC [Compound 2100c] , report its Inhibition of IL-1β Production, compound administered −2 hr relative to LPS challenge.
Solution: 0

---

Test system: IL-1β, human peripheral blood mononuclear cells (PBMC)
Experiment: PBMC cell assay: IL-1β assay with human PBMC or enriched adherent mononuclear cells, LPS-stimulated
Format: cell-based
Conditions: Homo sapiens, PBMC, * = values obtained upon reassay
Hi there, I'd appreciate the recorded log10 IC50 for every entry that follows.
Recall that a logarithmic scale is used here: each number is log10 of IC50 in nM.

Problem: Find the recorded log10 IC50 belonging to O=C[C@H](CC(=O)O)NC(=O)CN1C(=O)[C@@H](NC(=O)c2ccccc2)CN(C(=O)c2ccccc2)c2ccccc21 [Compound 605c] and report it.
Solution: 3.65

Problem: # lookup: log10 IC50 of `O=C[C@H](CC(=O)O)NC(=O)[C@@H]1CCCN2C(=O)CC[C@H](NC(=O)c3ccc4ccccc4c3)C(=O)N12`
Solution: 2.73

Problem: Suppose we examine the molecule COc1cccc2nc(C(=O)[C@H](CC(=O)O)NC(=O)[C@@H]3CCCN4C(=O)CC[C@H](NC(=O)CCc5ccccc5)C(=O)N34)oc12 [Compound 135a] ; what log10 IC50 value has been reported?
Solution: 3.45

Problem: Entry `O=C[C@H](CC(=O)O)NC(=O)[C@@H]1CCCN2C(=O)CC[C@H](NC(=O)C3CCCCC3)C(=O)N12` has what log10 IC50?
Solution: 3.65

Problem: Name the reported log10 IC50 value associated with the molecule `Cc1c(Cl)cccc1C(=O)N[C@H]1CCC(=O)N2CCC[C@@H](C(=O)N[C@H](C=O)CC(=O)O)N2C1=O`
Solution: 3.00

Problem: Recorded log10 IC50 for `COc1cccc(C(=O)N[C@H]2CCC(=O)N3CCC[C@@H](C(=O)N[C@H](C=O)CC(=O)O)N3C2=O)c1` , please?
Solution: 3.26

Problem: For `CC(=O)Nc1ccc(C(=O)N[C@H]2CCC(=O)N3CCC[C@@H](C(=O)N[C@H](C=O)CC(=O)O)N3C2=O)cc1NC(C)=O` , what is its reported log10 IC50?
Solution: 3.36

Problem: Request the reported log10 IC50 associated with `COc1cc(C(=O)N[C@H]2CCC(=O)N3CCC[C@@H](C(=O)N[C@H](C=O)CC(=O)O)N3C2=O)cc(OC)c1OC`
Solution: 3.30

Problem: Recorded log10 IC50 for `COC(=O)N[C@H]1CCC(=O)N2CCC[C@@H](C(=O)N[C@@H](CC(=O)O)C(=O)COC(=O)c3c(C)cccc3C)N2C1=O` , please?
Solution: 2.91

Problem: // log10 IC50 lookup, key: `CCCC(=O)Nc1ccc(C(=O)N[C@H]2CCC(=O)N3CCC[C@@H](C(=O)N[C@H](C=O)CC(=O)O)N3C2=O)cc1`
Solution: 2.97

Problem: Item under review: `O=C[C@H](CC(=O)O)NC(=O)[C@@H]1CCCN2C(=O)CC[C@H](NC(=O)c3ccc(F)cc3)C(=O)N12` . Reported log10 IC50?
Solution: 3.38

Problem: Item under review: `O=C(O)C[C@H](NC(=O)[C@@H]1CCCN2C(=O)CC[C@H](NC(=O)c3ccccc3)C(=O)N12)C(=O)CSc1nnnn1-c1ccccc1` . Reported log10 IC50?
Solution: 2.81

Problem: Look up log10 IC50: `CN(C)c1cccc(C(=O)N[C@H]2CCC(=O)N3CCC[C@@H](C(=O)N[C@H](C=O)CC(=O)O)N3C2=O)c1`
Solution: 2.70

Problem: Suppose we examine the molecule O=C(O)C[C@H](NC(=O)[C@@H]1CCCN2C(=O)CC[C@H](NC(=O)c3ccccc3)C(=O)N12)C(=O)COC(=O)c1c(Cl)cccc1Cl [Compound 217e] ; what log10 IC50 value has been reported?
Solution: 2.24

Problem: I'd like to know its log10 IC50. The molecule in question is `O=C[C@H](CC(=O)O)NC(=O)[C@@H]1CCCN2C(=O)CC[C@H](NC(=O)c3cccc4cccnc34)C(=O)N12`
Solution: 3.45

Problem: Need log10 IC50 of `CS(=O)(=O)c1ccc(C(=O)N[C@H]2CCC(=O)N3CCC[C@@H](C(=O)N[C@H](C=O)CC(=O)O)N3C2=O)cc1` , thanks.
Solution: 2.60

Problem: GET /values?readout=log10 IC50&item= O=C[C@H](CCC(=O)O)NC(=O)[C@@H]1CCCN2C(=O)CC[C@H](NC(=O)c3ccccc3)C(=O)N12 [Compound 235e]
Solution: 3.68

Problem: Which log10 IC50 value belongs to CC(=O)N1C[C@H](NC(=O)c2ccc3ccccc3c2)C(=O)N(CC(=O)N[C@H](C=O)CC(=O)O)c2ccccc21 [Compound 605n] ?
Solution: 3.32

Problem: Entry `CNC(=O)Nc1ccc(C(=O)N[C@H]2CCC(=O)N3CCC[C@@H](C(=O)N[C@H](C=O)CC(=O)O)N3C2=O)cc1` : reported log10 IC50 = ?
Solution: 3.35

Problem: Fill in the blank: the reported log10 IC50 of `O=C[C@H](CC(=O)O)NC(=O)[C@@H]1CCCN2C(=O)CC[C@H](NC(=O)c3ccc(O)c(Cl)c3)C(=O)N12` is ____.
Solution: 2.75

Problem: What does the record list as log10 IC50 for `CC(=O)N1C[C@H](NC(=O)C(=O)c2ccccc2)C(=O)N(CC(=O)N[C@H](C=O)CC(=O)O)c2ccccc21` ?
Solution: 3.28
